Origin of the recorded values: patent US20250101011A1

- study-target: DPP1 (Homo sapiens (Human))
- test: DPP1 activity inhibition test on U937 cells
- assay-setup: intracellular enzyme activity, substrate h-Gly-phe-AFC
measure-name: IC50 (nM)
Numeric answer only, unit nM assumed.

N#C[C@H](Cc1ccc(-c2ccc3c(c2)COC3=O)cc1F)NC(=O)[C@@H]1CNCCCO1: 5.3
CN1CC2(C1)OC(=O)c1ccc(-c3ccc(C[C@@H](C#N)NC(=O)[C@@H]4CNCCCO4)cc3)cc12: 41
Cn1ccc(=O)c2ccc(-c3ccc(C[C@@H](C#N)NC(=O)[C@@H]4CNCCCO4)c(F)c3)cc21: 867

Need IC50 of "N#C[C@H](Cc1ccc(-c2ccc3c(c2)COC3=O)cc1)NC(=O)[C@@H]1CNCCCO1" , thanks.
14

How about "Cn1c(=O)oc2ccc(-c3ccc(C[C@@H](C#N)NC(=O)[C@@H]4CNCCCO4)s3)cc21" ?
16

How about "C[C@H]1OC(=O)c2ccc(-c3ccc(C[C@@H](C#N)NC(=O)[C@@H]4CNC[C@@H](F)CO4)c(F)c3)cc21" ?
15

How about N#C[C@H](Cc1ccc(-c2ccc3c(c2)C2CC2C3=O)cc1F)NC(=O)[C@@H]1CNCCCO1 (stereo partly drawn) ?
17

How about "N#C[C@H](Cc1ccc(-c2ccc3oc(=O)n(CF)c3c2)cc1)NC(=O)[C@@H]1CNCCCO1" ?
5.7

How about "N#C[C@H](Cc1ccc(-c2ccc3c(c2)CCC3=O)cc1)NC(=O)[C@@H]1CNCCCO1" ?
10

How about "N#C[C@H](Cc1ccc(-c2ccc3c(c2)C2(CCN(C4COC4)CC2)OC3)cc1)NC(=O)[C@@H]1CNCCCO1" ?
16

How about "N#C[C@H](Cc1ccc(-c2ccc3c(n2)CCC3=O)cc1F)NC(=O)[C@@H]1CNCCCO1" ?
32.9

How about "[2H]C([2H])([2H])[C@H]1OC(=O)c2ccc(-c3ccc(C[C@@H](C#N)NC(=O)[C@@H]4CNCCCO4)c(F)c3)cc21" ?
4.6

How about "CN1CC2(C1)OCc1ccc(-c3ccc(C[C@@H](C#N)NC(=O)[C@@H]4CNCCCO4)cc3)cc12" ?
35

How about "CN1CCC2(C=Cc3cc(-c4ccc(C[C@@H](C#N)NC(=O)[C@@H]5CNCCCO5)c(F)c4)ccc32)CC1" ?
18

How about "CN1CC(n2c(=O)sc3ccc(-c4ccc(C[C@@H](C#N)NC(=O)[C@@H]5CNCCCO5)c(F)c4)cc32)C1" ?
13.2

How about "N#C[C@H](Cc1ccc(-c2ccc3c(c2)C2(CCN(C4COC4)CC2)OC3=O)cc1F)NC(=O)[C@@H]1CNCCCO1" ?
5.9

How about "C[C@@H]1OC(=O)c2ccc(-c3ccc(C[C@@H](C#N)NC(=O)[C@@H]4CNCCCO4)c(F)c3)cc21" ?
8

How about CC1OC(=O)c2ccc(-c3ccc(C[C@@H](C#N)NC(=O)[C@@H]4CNCCCO4)c(F)c3)cc21 (stereo partly drawn) ?
3.8

How about "N#C[C@H](Cc1ccc(-c2ccc3c(c2)C2(COC2)OC3=O)cc1)NC(=O)[C@@H]1CNCCCO1" ?
29

How about CN1CCC1Cn1c(=O)oc2ccc(-c3ccc(C[C@@H](C#N)NC(=O)[C@@H]4CNCCCO4)c(F)c3)cc21 (stereo partly drawn) ?
109

----------
- study-target: DPP1 (Homo sapiens (Human), UniProt P53634)
- Sequence (P53634 25-463): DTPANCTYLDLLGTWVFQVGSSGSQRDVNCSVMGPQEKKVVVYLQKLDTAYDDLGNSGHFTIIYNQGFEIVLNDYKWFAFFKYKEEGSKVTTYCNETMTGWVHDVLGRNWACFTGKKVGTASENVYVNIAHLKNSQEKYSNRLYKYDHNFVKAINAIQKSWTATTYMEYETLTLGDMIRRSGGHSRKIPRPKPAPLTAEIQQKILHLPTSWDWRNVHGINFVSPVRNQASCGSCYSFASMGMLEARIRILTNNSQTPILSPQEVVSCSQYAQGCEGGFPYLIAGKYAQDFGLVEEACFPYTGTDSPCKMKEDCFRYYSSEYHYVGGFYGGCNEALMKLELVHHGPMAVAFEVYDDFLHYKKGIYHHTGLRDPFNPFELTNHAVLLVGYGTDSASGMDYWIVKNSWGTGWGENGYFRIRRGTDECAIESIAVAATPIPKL
- test: DPP1 activity inhibition test on U937 cells
- Assay type: cell-based
- assay-setup: U-937, 50 nM compound, substrate h-Gly-phe-AFC
Measured inhibition at 0.05 µM by item

Recorded inhibition at 0.05 µM, per entry:
N#C[C@H](Cc1ccc(-c2ccc3c(c2)C(=O)CO3)cc1)NC(=O)[C@@H]1CNCCCO1: 30 to 75%
N#C[C@H](Cc1ccc(-c2ccc3nnnn3c2)cc1)NC(=O)[C@@H]1CNCCCO1: < 30%
CN1CC2(C1)OC(=O)c1ccc(-c3ccc(C[C@@H](C#N)NC(=O)[C@@H]4CNCCCO4)cc3)cc12: 75 to 100%
N#C[C@H](Cc1ccc(-c2ccc3c(c2)OC(F)(F)O3)cc1)NC(=O)[C@@H]1CNCCCO1: 30 to 75%
N#C[C@H](Cc1ccc(-c2ccc3c(c2)C2(CN(C4COC4)C2)OC3=O)cc1F)NC(=O)[C@@H]1CNCCCO1: 30 to 75%

Need inhibition at 0.05 µM of "N#C[C@H](Cc1ccc(-c2ccc3c(c2)CC(=O)C3)cc1)NC(=O)[C@@H]1CNCCCO1" , thanks.
30 to 75%

How about N#C[C@H](Cc1ccc(-c2ccc3oc(=O)n(C4CC(O)C4)c3c2)cc1F)NC(=O)[C@@H]1CNCCCO1 (stereo partly shown) ?
< 30%

----------
Measured inhibition at 0.005 µM by item
- study-target: DPP1 (Homo sapiens (Human), UniProt P53634)
- test: DPP1 activity inhibition test on U937 cells
- Format: cell-based
- assay-setup: U-937, 5 nM compound, substrate h-Gly-phe-AFC

Recorded inhibition at 0.005 µM, per entry:
N#C[C@H](Cc1ccc(-c2ccc3c(c2)C=CC32CCN(C3COC3)CC2)cc1F)NC(=O)[C@@H]1CNCCCO1: 30 to 75%
N#C[C@H](Cc1ccc(-c2ccc3c(n2)C2(CCN(C4COC4)CC2)OC3=O)cc1)NC(=O)[C@@H]1CNCCCO1: 30 to 75%

Need inhibition at 0.005 µM of "N#C[C@H](Cc1ccc(-c2ccc3nncn3c2)cc1)NC(=O)[C@@H]1CNCCCO1" , thanks.
< 30%

How about "N#C[C@H](Cc1ccc(-c2ccc3c(c2)COC3=O)cc1F)NC(=O)[C@@H]1CNCCCO1" ?
30 to 75%

----------
- study-target: DPP1 (Homo sapiens (Human), UniProt P53634)
- test: DPP1 activity inhibition test on U937 cells
- Assay type: cell-based
- assay-setup: U-937, 5 nM compound, substrate h-Gly-phe-AFC
Measured inhibition at 0.005 µM by item

Need inhibition at 0.005 µM of "N#C[C@H](Cc1ccc(-c2ccc3c(c2)C2(CCN(C4COC4)CC2)OC3)cc1)NC(=O)[C@@H]1CNCCCO1" , thanks.
30 to 75%

How about "CN1CC2(C1)OCc1ccc(-c3ccc(C[C@@H](C#N)NC(=O)[C@@H]4CNCCCO4)c(F)c3)cc12" ?
30 to 75%

How about "N#C[C@H](Cc1ccc(-c2cnc3c(c2)CCC3=O)cc1F)NC(=O)[C@@H]1CNCCCO1" ?
< 30%

How about "CC1(C)OC(=O)c2ccc(-c3ccc(C[C@@H](C#N)NC(=O)[C@@H]4CNCCCO4)cc3)cc21" ?
30 to 75%

How about "Cn1c(=O)oc2ccc(-c3ccc(C[C@@H](C#N)NC(=O)[C@@H]4CNC[C@H](F)CO4)cc3)cc21" ?
30 to 75%

----------
- study-target: rhCathepsin C/DPP1 (Homo sapiens (Human), UniProt P53634)
- test: Test for inhibition of DPP1 enzyme activity
- Format: biochemical
- assay-setup: recombinant human cathepsin C/DPP1; substrate Gly-Arg-AMC
measure-name: pIC50
Note: pIC50 values are expressed as the negative base-10 logarithm of concentration in M.

Recorded pIC50, per entry:
CN1CC(n2c(=O)oc3ccc(-c4ccc(C[C@@H](C#N)NC(=O)[C@@H]5CNCCCO5)c(F)c4)cc32)C1: 9.74
Cn1cc(-n2c(=O)oc3ccc(-c4ccc(C[C@@H](C#N)NC(=O)[C@@H]5CNCCCO5)c(F)c4)cc32)cn1: 8.77
N#C[C@H](Cc1ccc(-c2ccc3c(c2)COC3=O)cc1F)NC(=O)[C@@H]1CNCCCO1: 8.60
N#C[C@H](Cc1ccc(-c2ccc3c(c2)C2(COC2)OC3=O)cc1)NC(=O)[C@@H]1CNCCCO1: 8.10

Need pIC50 of "N#C[C@H](Cc1ccc(-c2ccc3c(c2)C2(CCN(C4COC4)CC2)OC3=O)cc1F)NC(=O)[C@@H]1CNCCCO1" , thanks.
9.49

How about "N#C[C@H](Cc1ccc(-c2ccc3c(c2)COC3=O)cc1)NC(=O)[C@@H]1CNCCCO1" ?
8.28

How about "N#C[C@H](Cc1ccc(-c2ccc3c(c2)COC3=O)cc1F)NC(=O)[C@@H]1CNCC2(CC2)CO1" ?
9.14

How about "N#C[C@H](Cc1ccc(-c2ccc3sc(=O)n(C4COC4)c3c2)cc1F)NC(=O)[C@@H]1CNCCCO1" ?
8.87

----------
Measured inhibition at 0.005 µM by item
- study-target: DPP1 (Homo sapiens (Human))
- test: DPP1 activity inhibition test on U937 cells
- Type: cell-based
- assay-setup: U-937, 5 nM compound, substrate h-Gly-phe-AFC

Recorded inhibition at 0.005 µM, per entry:
C[C@H]1OC(=O)c2ccc(-c3ccc(C[C@@H](C#N)NC(=O)[C@@H]4CNCCCO4)c(F)c3)cc21: 30 to 75%
COCC1OC(=O)c2ccc(-c3ccc(C[C@@H](C#N)NC(=O)[C@@H]4CNCCCO4)c(F)c3)cc21 (stereo partly shown): < 30%
CNS(=O)(=O)c1ccc(-c2ccc(C[C@@H](C#N)NC(=O)[C@@H]3CNCCCO3)cc2)cc1: < 30%
CO[C@H](C)Cn1c(=O)oc2ccc(-c3ccc(C[C@@H](C#N)NC(=O)[C@@H]4CNCCCO4)cc3)cc21: < 30%
Cn1c(=O)oc2ccc(-c3ccc(C[C@@H](C#N)NC(=O)[C@@H]4CNCc5ccccc5O4)cc3)cc21: < 30%
N#C[C@H](Cc1ccc(-c2ccc3c(c2)C(=O)CC3)cc1)NC(=O)[C@@H]1CNCCCO1: < 30%
CN(C)CC1OC(=O)c2ccc(-c3ccc(C[C@@H](C#N)NC(=O)[C@@H]4CNCCCO4)c(F)c3)cc21 (stereo partly shown): < 30%
N#C[C@H](Cc1ccc(-c2ccc3c(c2)C2(COC2)OC3)cc1)NC(=O)[C@@H]1CNCCCO1: 30 to 75%
CN1CC2(C1)OC(=O)c1ccc(-c3ccc(C[C@@H](C#N)NC(=O)[C@@H]4CNCCCO4)cc3)cc12: 30 to 75%
N#C[C@H](Cc1ccc(-c2ccc3c(c2)CC(=O)C3)cc1)NC(=O)[C@@H]1CNCCCO1: < 30%

Need inhibition at 0.005 µM of "N#C[C@H](Cc1ccc(-c2ccc3c(c2)C2(CS(=O)(=O)C2)OC3=O)cc1F)NC(=O)[C@@H]1CNCCCO1" , thanks.
< 30%

How about "N#C[C@H](Cc1ccc(-c2ccc3c(c2)COC3=O)cc1F)NC(=O)[C@@H]1CNCC2(CC2)CO1" ?
30 to 75%

How about "CN1CCC(n2c(=O)oc3ccc(-c4ccc(C[C@@H](C#N)NC(=O)[C@@H]5CNCCCO5)c(F)c4)cc32)CC1" ?
< 30%

How about "N#C[C@H](Cc1ccc(-c2ccc3c(c2)C2(COC2)OC3=O)cc1)NC(=O)[C@@H]1CNCCCO1" ?
30 to 75%
